Entry source: paper PMC4100783

- TARGET_ENTITY: mftR
- CONDITION_DETAILS: read-out: K
OUTCOME_MEASURE: Kd (µM)
All answers are understood in µM, so give the number only.

[in] Reported Kd, molecule O=c1[nH]c(=O)c2[nH]c(=O)[nH]c2[nH]1 [urate] : ____
[out] 6.1

----------
- Test system: MftR-mftpO complex
- Type: biochemical, Burkholderia thailandensis
OUTCOME_MEASURE: pIC50
Please treat pIC50 as minus the base-10 logarithm of the molar concentration.

[in] API: value(readout=pIC50, system=MftR-mftpO complex) for record O=c1[nH]c(=O)c2[nH]c(=O)[nH]c2[nH]1 [urate]
[out] 2.66
